Values were extracted from ChEMBL document CHEMBL2384940.

# system-under-test: Metabotropic glutamate receptor 3 (Rattus norvegicus) (UniProt P31422)
# Sequence (P31422 23-879 limits assumed): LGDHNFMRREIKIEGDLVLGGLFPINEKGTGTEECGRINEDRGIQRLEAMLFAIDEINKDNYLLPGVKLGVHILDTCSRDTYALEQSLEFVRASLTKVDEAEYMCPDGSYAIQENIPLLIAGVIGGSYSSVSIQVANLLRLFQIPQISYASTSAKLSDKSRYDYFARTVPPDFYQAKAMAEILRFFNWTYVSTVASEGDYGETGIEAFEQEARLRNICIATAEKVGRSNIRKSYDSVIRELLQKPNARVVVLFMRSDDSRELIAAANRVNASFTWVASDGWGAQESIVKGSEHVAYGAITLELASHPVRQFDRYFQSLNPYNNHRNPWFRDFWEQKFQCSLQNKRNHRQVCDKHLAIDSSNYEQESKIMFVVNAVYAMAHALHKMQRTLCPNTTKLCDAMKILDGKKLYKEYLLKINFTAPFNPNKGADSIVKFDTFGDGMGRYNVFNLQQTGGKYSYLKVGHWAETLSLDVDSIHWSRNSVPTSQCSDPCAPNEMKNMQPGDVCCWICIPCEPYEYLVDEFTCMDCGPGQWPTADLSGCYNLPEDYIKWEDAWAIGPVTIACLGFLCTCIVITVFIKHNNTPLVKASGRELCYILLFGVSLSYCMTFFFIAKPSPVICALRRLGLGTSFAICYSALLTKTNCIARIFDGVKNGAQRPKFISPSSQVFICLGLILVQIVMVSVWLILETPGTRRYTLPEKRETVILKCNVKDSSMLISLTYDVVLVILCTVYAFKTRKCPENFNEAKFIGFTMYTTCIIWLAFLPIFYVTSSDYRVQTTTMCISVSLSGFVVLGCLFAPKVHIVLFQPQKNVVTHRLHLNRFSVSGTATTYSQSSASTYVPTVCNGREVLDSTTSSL
# test-description: Negative allosteric modulation of rat mGlu3 receptor transfected in human TREX cells after 2.5 mins by calcium mobilization assay relative to glutamate
# Type: functional, cell-based
# Set-up: concentration or dose not given beside the values
Record form. Attribute: Activity. Fill in for each entry.
I only need the number, in %, no unit after it.

Return Activity for the following compound: COc1ccc(C#Cc2ccc(C(=O)N3CC4CCC(O)C4C3)cc2)cc1 (configuration not stated)
1.7

Fill in reported Activity for this entry: COc1ccc(C#Cc2ccc(C(=O)N3CCC(CO)C3)cc2)cc1 (configuration not stated)
0

Identify Activity associated with the compound `COc1ccc(C#Cc2ccc(C(=O)N3CCC[C@@H](O)C3)cc2F)cc1`
1.64

Specify measured Activity for COc1ccc(C#Cc2ccc(C(=O)N3CCCC(O)C3)cc2)cc1 (racemic) .
0.4

Specify Activity for `COc1ccc(C#Cc2ccc(C(=O)N3CCC[C@@H](O)C3)c(F)c2)cc1` and stop.
1.9

Give recorded Activity. COc1ccc(C#Cc2ccc(C(=O)N3CC4CCC(=O)C4C3)cc2)cc1 (configuration not stated)
1.6

Return the recorded Activity value; entry: `COc1ccc(C#Cc2ccc(C(=O)N3CCC[C@@H](O)C3)cc2)cc1`
2

Quickly give me recorded Activity for `COc1ccc(C#Cc2ccc(C(=O)N3CCC[C@H](O)C3)cc2)cc1`
1.7

Given COc1ccc(C#Cc2ccc(C(=O)N3CCCC(C)(O)C3)cc2)cc1 (configuration not stated) , respond with its Activity.
-0.13

Please look at this compound and report its Activity: `COc1ccc(C#Cc2ccc(C(=O)N3CC[C@@H](O)C3)cc2)cc1`
0

State, in one line, measured Activity of COc1ccc(C#Cc2ccc(C(=O)N3CCCC(OC)C3)cc2)cc1 (configuration not stated)
0

Return reported Activity. Input compound: COc1ccc(C#Cc2ccc(C(=O)NC(C)CO)cc2)cc1 (configuration not stated)
1.6
